molecular target: D(1B) dopamine receptor (Homo sapiens) (UniProt P21918); conditions: Compound concentration 10 µM; call rule not given here
Sequence (P21918 whole entry): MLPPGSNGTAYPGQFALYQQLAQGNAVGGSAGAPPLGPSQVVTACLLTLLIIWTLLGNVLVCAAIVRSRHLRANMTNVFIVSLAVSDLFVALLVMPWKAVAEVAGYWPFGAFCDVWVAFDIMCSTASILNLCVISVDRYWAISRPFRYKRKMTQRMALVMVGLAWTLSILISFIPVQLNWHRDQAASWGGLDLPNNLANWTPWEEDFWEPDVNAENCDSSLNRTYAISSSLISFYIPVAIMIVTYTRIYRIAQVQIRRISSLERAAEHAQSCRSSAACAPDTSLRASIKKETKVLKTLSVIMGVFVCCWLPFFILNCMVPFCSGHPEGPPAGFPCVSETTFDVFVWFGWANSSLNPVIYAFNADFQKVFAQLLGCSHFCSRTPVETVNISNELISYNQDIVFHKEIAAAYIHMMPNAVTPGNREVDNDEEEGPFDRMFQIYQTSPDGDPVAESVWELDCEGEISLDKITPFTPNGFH
The categories you may choose from are active, inactive

Use these answered entries as a reference point.
[[record]]
smiles_entry = "Nc1nc(NCCc2ccc(O)cc2)nc2nc(-c3ccco3)nn12"
class_name = "inactive"

[[record]]
smiles_entry = "Oc1ccc2c3c1O[C@H]1c4[nH]c5c(c4C[C@@]4(O)[C@@H](C2)N(CC2CC2)CC[C@]314)C[C@@]1(O)[C@H]2Cc3ccc(O)c4c3[C@@]1(CCN2CC1CC1)[C@H]5O4"
class_name = "inactive"

[[record]]
smiles_entry = "CC(C)(C)NC[C@H](O)COc1nsnc1N1CCOCC1"
class_name = "inactive"

[[record]]
smiles_entry = "COc1ccnc(N2CCC3(CCCN(Cc4c[nH]c5ccccc45)C3=O)CC2)n1"
class_name = "inactive"

[[record]]
smiles_entry = "O=C(O)C1CN(Cc2ccc(OCc3ccc(Cl)c(Cl)c3)cc2)C1"
class_name = "inactive"


## Task Assay outcome for CC1=C2C[C@H]3[C@@H](CC=C4C[C@@H](O)CC[C@@]43C)[C@@H]2CC[C@]12O[C@@H]1C[C@H](C)CN[C@H]1[C@H]2C : what was it?
## Result inactive

###

target: 5-hydroxytryptamine receptor 3A (Homo sapiens); conditions: Compound concentration 10 µM; call rule not given here
The categories you may choose from are Yes = active, No = inactive

Use these answered entries as a reference point.
[[record]]
compound = "Clc1cccc(COc2cncc(N3CCNCC3)n2)c1"
measurement_target = "5-hydroxytryptamine receptor 3A (Homo sapiens)"
class_name = "Yes"

[[record]]
compound = "COc1ccc(Br)cc1S(=O)(=O)NC(=O)/C=C/c1ccccc1Cc1ccc2ccccc2c1"
measurement_target = "5-hydroxytryptamine receptor 3A (Homo sapiens)"
class_name = "No"


## Task Assay outcome for CNc1nc(NCc2ccc(NS(C)(=O)=O)cc2Cl)cc(-c2ccccn2)n1 : what was it?
## Result No

## Task Assay outcome for CCc1cc2c(c(CC)n1)CCC(=O)N2Cc1ccc(-c2ccccc2-c2nnn[nH]2)cc1 : what was it?
## Result No

## Task Assay outcome for CN1CCN(c2ccc(Nc3c4ccccc4nc4ccccc34)cc2)CC1 : what was it?
## Result No

## Task Assay outcome for Cc1c(OCc2cccc(-c3ccc(C(=O)O)cc3)c2)cc2c(c1C)C(=O)C(C1CCCC1)C2 (centres undefined) : what was it?
## Result No

###

molecular target: Kappa-type opioid receptor (Homo sapiens) (UniProt P41145); details: Compound concentration 10 µM; call rule not given here
Sequence (P41145 whole entry): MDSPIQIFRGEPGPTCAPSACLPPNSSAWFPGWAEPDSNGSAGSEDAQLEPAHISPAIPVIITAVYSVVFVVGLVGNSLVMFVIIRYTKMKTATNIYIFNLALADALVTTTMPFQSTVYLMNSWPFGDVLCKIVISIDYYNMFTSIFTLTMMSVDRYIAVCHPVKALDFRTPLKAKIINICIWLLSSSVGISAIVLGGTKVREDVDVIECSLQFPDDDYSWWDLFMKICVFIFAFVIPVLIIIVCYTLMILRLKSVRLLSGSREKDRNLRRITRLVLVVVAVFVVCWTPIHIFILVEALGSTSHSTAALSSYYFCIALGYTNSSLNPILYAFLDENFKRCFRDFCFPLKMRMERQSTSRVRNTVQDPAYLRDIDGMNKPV
The categories you may choose from are active, inactive

[[record]]
smiles_entry = "CC(C)(N)C(=O)N[C@H](COCc1ccccc1)C(=O)N1CCC2(CC1)CN(S(C)(=O)=O)c1ccccc12"
class_name = "inactive"

[[record]]
smiles_entry = "C[C@@H](N)Cc1c[nH]cn1"
class_name = "inactive"

[[record]]
smiles_entry = "O=C(Cc1ccccc1)Nc1nc2ccc(Cl)cc2c2nc(-c3ccco3)nn12"
class_name = "inactive"

[[record]]
smiles_entry = "CCc1nn(CCCN2CCN(c3cccc(Cl)c3)CC2)c(=O)n1CCOc1ccccc1"
class_name = "inactive"

[[record]]
smiles_entry = "Cc1cc(C)c(N)c(C#Cc2cccc(F)c2)n1"
class_name = "inactive"

[[record]]
smiles_entry = "Cc1nn(C)c(C)c1-c1cccc2c1CC[C@H](N(C)C)C2"
class_name = "inactive"

[[record]]
smiles_entry = "COc1ccc2cc(S(=O)(=O)N[C@H](CC(=O)N[C@H](Cc3ccc(CN4[C@H](C)CCC[C@@H]4C)cc3)C(=O)N(C)C(C)C)c3ccc4c(c3)OCO4)ccc2c1"
class_name = "active"

[[record]]
smiles_entry = "COc1ccc(CNC(=O)c2cc(-c3cncc(Cl)c3)cnc2-c2ccccn2)nc1OC"
class_name = "inactive"


In the following, a different compound is considered.
## Task Assay outcome for Cc1c(F)cccc1NC(=O)Nc1ccc(Cl)c(S(=O)(=O)[C@H]2CCCNC2)c1O : what was it?
## Result inactive
